Where do the numbers come from? From the nanobody polyreactivity screen of Harvey et al. (2022).

assay: yeast display, Sf9 membrane polyspecificity reagent, FACS + sequencing; frameworks hold sequencing errors
measure_name: polyreactivity (PSR sort gate)

>  <biosequence>
QVQLVESGGGLVQAGGSLRLSCAASGSIFDDYAMGWYRQAPGKERELVAAISWSGGSTYYADSVKGRFTISRDNAKNTVYLQMNSLKPEDTAVYYCAAYDYDYLYGEYYWGQGTQVTVSS

>  <polyreactivity (PSR sort gate)>
low polyreactivity

$$$$
>  <biosequence>
QVHLVESGGGLVQAGGSLRLTCAASGSIFTYNAMGWYRQAPGKEREFVAAISRCGGNTKYADSVKGRFTISRDNAKNTVYFQMNSLKPEDTAVYYCAVRTIAYSGFRYNYWGQGTQVTVSS

>  <polyreactivity (PSR sort gate)>
high polyreactivity

$$$$
>  <biosequence>
QVQLVYSGGGLVQAGGSLRLSCAASGSIFFVYAMGWYRQAPGKERELDAAITSGGSTKDADSVKGRFTISRDNAKNTVYLQMNSLKPEDTAVYYCAKDYKCIATEGAFDYWGQGTQVTVSS

>  <polyreactivity (PSR sort gate)>
low polyreactivity

$$$$
>  <biosequence>
QVQLVESGGGLVQAGGSLRLSCAASGSTFRPYAMGWDRQAPGKERELVAAITSTGGSTYYADSVKGRFTISRDNAKNTVYLQMNSLKPEDTAVYYCAAPLVRYAGPYDYWGQGTQVTVSS

>  <polyreactivity (PSR sort gate)>
low polyreactivity

$$$$
>  <biosequence>
QVQLVESGGGLVQAGGSLRLSCAASGRIFVINAMGWYRQAPGKERELVAAISSSGGSTSYADSVKGRFTISRDNAKNTVYFQMNSLKPEDTAVYYCAAKPRVRRVDGYYWGQGTQVTVSS

>  <polyreactivity (PSR sort gate)>
high polyreactivity

$$$$

Query :: Item QVQLVESGGGLVQAGGSLRLSCAASGSIFAPYAMGWYRQAPGKEREVVAAITSGVGSTYYADSVKGRFTISRDNAKNTVYLQMNSLKPEDTAVYYCAADSSYLTYWEYDYWGQGSQVTVSS has what recorded polyreactivity (PSR sort gate)?
Result :: low polyreactivity

Query :: # polyreactivity (PSR sort gate) lookup, item QVQLVESGGGLVQAGGSLRLICAASGFIFASYAMGWYRQSPGKEREFVAAITRRGGTTYYADSVNGRFTISRDNAKNTVYLQMNSLKPEDTAVYYCATAHSRPGYVFDYWGQGTQVTVSS
Result :: high polyreactivity

Query :: Would you kindly share the measured polyreactivity (PSR sort gate) for QVQLVESGGGLVQAGGSLRLSCAASGSIFRDNVMGWYRQAPGKERELVAAITQRGGSTYYADSVKGRFTISRDNAKNTVYVQMNSLKPEDTAVYYCNARRYVLRYNRFYYWGQGTEVTVSS ?
Result :: high polyreactivity
